Target: KDM4C (JMJD2C) (Homo sapiens, UniProt Q9H3R0)
Construct: KDM4C; BRIC, Denmark; 1-349; E. coli; host or cells: E. coli
Sequence (Q9H3R0 1-349): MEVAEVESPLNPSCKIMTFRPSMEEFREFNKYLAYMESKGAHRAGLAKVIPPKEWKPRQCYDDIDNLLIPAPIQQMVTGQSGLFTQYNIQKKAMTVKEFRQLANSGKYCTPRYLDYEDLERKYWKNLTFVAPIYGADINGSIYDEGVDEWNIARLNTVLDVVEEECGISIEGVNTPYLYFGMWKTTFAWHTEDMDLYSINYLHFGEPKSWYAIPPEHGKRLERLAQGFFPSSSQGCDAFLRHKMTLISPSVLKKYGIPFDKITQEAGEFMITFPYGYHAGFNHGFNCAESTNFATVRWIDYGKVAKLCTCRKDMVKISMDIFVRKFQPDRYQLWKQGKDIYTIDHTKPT
Assay: Histone lysine demethylase AlphaLISA assay, KDM4C
Type: biochemical
Details: AlphaLISA, in vitro; read-out: HDME Inhibition KDM4C
pIC50: −log10 of the molar value.
Property label: pIC50

Here Cc1nnc(CNCc2cc(C(=O)O)cc(CO)n2)n1Cc1ccc(F)cc1 [Compound 72] was tested on KDM4C (JMJD2C) (Homo sapiens, UniProt Q9H3R0), and its pIC50 came to < 5.00

Here CCc1cnc(CNCc2cc(C(=O)O)cc(CO)n2)n1Cc1ccc(F)cc1 [Compound 100] was tested on KDM4C (JMJD2C) (Homo sapiens, UniProt Q9H3R0), and its pIC50 came to < 5.00

Here O=C(O)c1cc(CO)nc(CNCc2nnc(Cc3cccs3)n2Cc2ccc(F)cc2)c1 [Compound 71] was tested on KDM4C (JMJD2C) (Homo sapiens, UniProt Q9H3R0), and its pIC50 came to < 5.00

Here O=C(O)c1cc(CO)nc(CNCc2nccn2Cc2ccc(F)cc2)c1 [Compound 81] was tested on KDM4C (JMJD2C) (Homo sapiens, UniProt Q9H3R0), and its pIC50 came to 6.08

Here CCN(CCN(C)C)C(=O)CNCc1cc(C(=O)O)cc(CO)n1 [Compound 102] was tested on KDM4C (JMJD2C) (Homo sapiens, UniProt Q9H3R0), and its pIC50 came to 5.15

Here CC#Cc1cc(C(=O)O)cc(CNCc2nccn2Cc2ccc(F)cc2)n1 [Compound 6] was tested on KDM4C (JMJD2C) (Homo sapiens, UniProt Q9H3R0), and its pIC50 came to < 5.00

Here C/C=C\c1cnc(CNCc2cc(C(=O)O)cc(C)n2)n1Cc1ccc(F)cc1 [Compound 35] was tested on KDM4C (JMJD2C) (Homo sapiens, UniProt Q9H3R0), and its pIC50 came to < 5.00

Here CCCc1nnc(CNCc2cc(C(=O)O)cc(CO)n2)n1Cc1ccc(F)cc1 [Compound 73] was tested on KDM4C (JMJD2C) (Homo sapiens, UniProt Q9H3R0), and its pIC50 came to < 5.00

Here CCc1cnc(CNCc2cc(C(=O)O)cc(C)n2)n1CCc1ccccc1 [Compound 54] was tested on KDM4C (JMJD2C) (Homo sapiens, UniProt Q9H3R0), and its pIC50 came to < 5.00

Here Cc1cc(C(=O)O)cc(CNCc2nnc(C(C)O)n2Cc2ccc(F)cc2)n1 (stereo not drawn) [Compound 85] was tested on KDM4C (JMJD2C) (Homo sapiens, UniProt Q9H3R0), and its pIC50 came to < 5.00

Here Cc1cc(C(=O)O)cc(CNCc2ncc(CCCc3ccccc3)n2Cc2ccc(F)cc2)n1 [Compound 31] was tested on KDM4C (JMJD2C) (Homo sapiens, UniProt Q9H3R0), and its pIC50 came to < 5.00

Here Cc1cc(C(=O)O)cc(CNCc2nnc(Cc3ccccc3)n2Cc2ccc(F)cc2)n1 [Compound 29] was tested on KDM4C (JMJD2C) (Homo sapiens, UniProt Q9H3R0), and its pIC50 came to < 5.00

Here CCc1cc(C(=O)O)cc(CNCc2nccn2Cc2ccc(F)cc2)n1 [Compound 13] was tested on KDM4C (JMJD2C) (Homo sapiens, UniProt Q9H3R0), and its pIC50 came to < 5.00

Here Cc1cc(C(=O)O)cc(CNCc2nccn2CCc2cncnc2)n1 [Compound 26] was tested on KDM4C (JMJD2C) (Homo sapiens, UniProt Q9H3R0), and its pIC50 came to < 5.00

Here Cc1cc(C(=O)O)cc(CNCCc2ccccn2)n1 [Compound 3] was tested on KDM4C (JMJD2C) (Homo sapiens, UniProt Q9H3R0), and its pIC50 came to < 5.00

Here Cc1cc(C(=O)O)cc(CNCc2nnc3n2C(c2ccccc2)CNC3)n1 (stereo not drawn) [Compound 113] was tested on KDM4C (JMJD2C) (Homo sapiens, UniProt Q9H3R0), and its pIC50 came to < 5.00

Here O=C(O)c1cc(CO)nc(CNCCc2nncn2Cc2ccc(C(F)(F)F)cc2)c1 [Compound 66] was tested on KDM4C (JMJD2C) (Homo sapiens, UniProt Q9H3R0), and its pIC50 came to < 5.00

Here Cc1cc(C(=O)O)cc(CN[C@H](CO)CC(C)C)n1 [Compound 23] was tested on KDM4C (JMJD2C) (Homo sapiens, UniProt Q9H3R0), and its pIC50 came to < 5.00
